# study system: T1, human GIP receptor (human) (UniProt P48546)
# T1 sequence (looked up): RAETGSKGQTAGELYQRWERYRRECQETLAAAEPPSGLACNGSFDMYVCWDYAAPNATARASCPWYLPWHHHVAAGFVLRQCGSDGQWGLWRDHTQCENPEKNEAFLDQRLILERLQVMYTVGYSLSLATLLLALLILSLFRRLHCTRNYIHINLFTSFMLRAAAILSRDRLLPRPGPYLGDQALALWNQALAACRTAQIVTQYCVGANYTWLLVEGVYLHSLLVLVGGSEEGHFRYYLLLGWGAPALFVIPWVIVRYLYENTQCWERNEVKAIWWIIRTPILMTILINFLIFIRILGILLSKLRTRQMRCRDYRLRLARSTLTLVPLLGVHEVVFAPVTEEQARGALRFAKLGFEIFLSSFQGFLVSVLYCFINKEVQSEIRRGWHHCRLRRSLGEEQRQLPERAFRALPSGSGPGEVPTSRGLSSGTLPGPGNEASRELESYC
# assay comment: cell-based or functional assay
Non-standard residues stand in square brackets, D forms with d. No end group written: not given here. αMeL = CC(C)C[C@](C)(N)C(=O)O; Aib = CC(C)(N)C(=O)O
readout kind: log10(Relative cAMP EC50) (log10 of the value in pM)
Base-10 log of Relative cAMP EC50, unit pM.

Exam item: Identify log10(Relative cAMP EC50) associated with the binder YXQGTFTSDXSKXLDKKAQXAFIEYLIEXGPSSGAPPPSGSEE (synthetic construct; SITE 2: note = 2-Aminoisobutyric Acid; SITE 10: note = 3-(4-Pyridyl)-L-alanine; SITE 13: note = alpha-methyl-leucine; SITE 17: note = Lysine is chemically modified through conjugation of the epsilon-amino group of the Lysine side chain with (gamma-Glu)2-CO-(CH2)16-CO2H; SITE 20:) [Example 905]
Marked response: 2.34

Exam item: Identify log10(Relative cAMP EC50) associated with the binder YXQGTFTSDFSXXLDKKAQXAFIEYLLEGGPSSGAPXPGGS (Aib, Orn, αMeL, Hyp; acylated Lys; C-terminal amide; synthetic construct; SITE 2: note = 2-Aminoisobutyric Acid; SITE 12: note = L-ornithine; SITE 13: note = alpha-methyl-leucine; SITE 17: note = Lysine is chemically modified through conjugation of the epsilon-amino group of the Lysine side chain with (2-[2-(2-Amino-ethoxy)-ethoxy]-acetyl)-(gamma-Glu)) [Example 236]
Marked response: 2.49

Exam item: Identify log10(Relative cAMP EC50) associated with the binder Y[Aib]QGTFTSDYSK[αMeL]LDKKAQQAFIEYLLAGGPSSGEPPPSGE-NH2 (not fully specified (residue 17)) [Example 344]
Marked response: 2.61

Exam item: Identify log10(Relative cAMP EC50) associated with the binder YXQGTFTSDXSQXLDKKAQXAFIEXLIEXGPSSGEPPPSGE (Aib, 4Pal, αMeL, Me4Pal; acylated Lys; C-terminal amide; synthetic construct; SITE 2: note = 2-Aminoisobutyric Acid; SITE 10: note = 3-(4-Pyridyl)-L-alanine; SITE 13: note = alpha-methyl-leucine; SITE 17: note = Lysine is chemically modified through conjugation of the epsilon-amino group of the Lysine side chain with (gamma-Glu)2-CO-(CH2)16-CO2H; SITE 20:) [Example 1123]
Marked response: 2.00

Exam item: Identify log10(Relative cAMP EC50) associated with the binder YXQGTFTSDFSXXLDKKAQXAFIEYLIEXGESSGAPPPSGS (non-natural residues; lipidated Lys AEEA-γGlu-C18 diacid; C-term amide; synthetic construct; SITE 2: note = 2-Aminoisobutyric Acid; SITE 12: note = L-ornithine; SITE 13: note = alpha-methyl-leucine; SITE 17: note = Lysine is chemically modified through conjugation of the epsilon-amino group of the Lysine side chain with (2-[2-(2-Amino-ethoxy)-ethoxy]-acetyl)-(gamma-Glu)) [Example 229]
Marked response: 2.25

Exam item: Identify log10(Relative cAMP EC50) associated with the binder YXQGTFTSDFSXXLDKKAQXAFIEYLLEXGPSSGAPPPGEG (synthetic construct; SITE 2: note = 2-Aminoisobutyric Acid; SITE 12: note = L-ornithine; SITE 13: note = alpha-methyl-leucine; SITE 17: note = Lysine is chemically modified through conjugation of the epsilon-amino group of the Lysine side chain with (2-[2-(2-Amino-ethoxy)-ethoxy]-acetyl)2-(gamma-Glu)) [Example 70]
Marked response: 2.01

Exam item: Identify log10(Relative cAMP EC50) associated with the binder YXQGTFTSDFSXXLDKKAQXAFIEYLLEXGESSGAPPPSGS (non-natural residues; lipidated Lys; C-terminal amide; synthetic construct; SITE 2: note = 2-Aminoisobutyric Acid; SITE 12: note = L-ornithine; SITE 13: note = alpha-methyl-leucine; SITE 17: note = Lysine is chemically modified through conjugation of the epsilon-amino group of the Lysine side chain with (2-[2-(2-Amino-ethoxy)-ethoxy]-acetyl)-(gamma-Glu)) [Example 240]
Marked response: 2.33

Exam item: Identify log10(Relative cAMP EC50) associated with the binder YXQGTFTSDXSQXLDXKAQXAFIEXLIAGGPSSGAPPPSGSEE (non-natural residues; C18 diacid-γ-Glu acyl on Lys; C-terminal amide; synthetic construct; SITE 2: note = 2-Aminoisobutyric Acid; SITE 10: note = 3-(4-Pyridyl)-L-alanine; SITE 13: note = alpha-methyl-leucine; SITE 16: note = L-ornithine; SITE 17: note = Lysine is chemically modified through conjugation of the epsilon-amino group of the Lysine side chain with D-Glutami) [Example 1074]
Marked response: 1.87

Exam item: Identify log10(Relative cAMP EC50) associated with the binder YXQGTFTSDFSQXLDKKAQXAFIEYLIAGGPSSGAPPPSGS (not fully specified; synthetic construct; SITE 2: note = 2-Aminoisobutyric Acid; SITE 13: note = alpha-methyl-leucine; SITE 17: note = Lysine is chemically modified through conjugation of the epsilon-amino group of the Lysine side chain with (gamma-Glu)2-CO-(CH2)16-CO2H; SITE 20: note = 3-(4-Pyridyl)-L-alanine; SITE 41:) [Example 876]
Marked response: 1.72

Exam item: Identify log10(Relative cAMP EC50) associated with the binder YXQGTFTSDXSQXLDXKAQXAFIEXLIEGGPSSGEPPPSGSEE (Aib, 4Pal, αMeL, Orn, Me4Pal, αMeY; lipidated Lys; C-terminal amide; synthetic construct; SITE 2: note = 2-Aminoisobutyric Acid; SITE 10: note = 3-(4-Pyridyl)-L-alanine; SITE 13: note = alpha-methyl-leucine; SITE 16: note = L-ornithine; SITE 17: note = Lysine is chemically modified through conjugation of the epsilon-amino group of the Lysine side chain with (gamma-Gl)) [Example 1027]
Marked response: 2.32

Exam item: Identify log10(Relative cAMP EC50) associated with the binder YXQGTFTSDXSXXLDKKAQXAFIEXLIEGGPSSGAPPPSGS (synthetic construct; SITE 2: note = 2-Aminoisobutyric Acid; SITE 10: note = 3-(4-Pyridyl)-L-alanine; SITE 12: note = L-ornithine; SITE 13: note = alpha-methyl-leucine; SITE 17: note = Lysine is chemically modified through conjugation of the epsilon-amino group of the Lysine side chain with (2-[2-(2-) [Example 497]
Marked response: 2.47

Exam item: Identify log10(Relative cAMP EC50) associated with the binder YXQGTXTSDYSILLDKIAQXAFIKYLEEGGPSSGAPPPS (not fully specified; synthetic construct; SITE 2: note = 2-Aminoisobutyric Acid; SITE 6: note = alpha-methyl-2-fluoro-L-phenylalanine; SITE 20: note = 2-Aminoisobutyric Acid; SITE 24: note = Lysine is chemically modified through conjugation of the epsilon-amino group of the Lysine side chain with (2-[2-(2-Amino-ethoxy)-) [Example 430]
Marked response: 1.16

Exam item: Identify log10(Relative cAMP EC50) associated with the binder YXQGTXTSDYSILLDKKAQXAFIEYLLEGGPSSGAPPPE (not fully specified; synthetic construct; SITE 2: note = 2-Aminoisobutyric Acid; SITE 6: note = alpha-methyl-2-fluoro-L-phenylalanine; SITE 17: note = Lysine is chemically modified through conjugation of the epsilon-amino group of the Lysine side chain with (2-[2-(2-Amino-ethoxy)-ethoxy]-acetyl)2-(gamma-Glu)-CO-(CH2 )18) [Example 386]
Marked response: 1.19

Exam item: Identify log10(Relative cAMP EC50) associated with the binder YXQGTXTSDXXILLDXKAQXXFIEYLIEGGPSSGEPPPEGGEE (Aib, αMeF(2F), 4Pal, αMeS, Orn; acylated lysine; amide; synthetic construct; SITE 2: note = 2-Aminoisobutyric Acid; SITE 6: note = alpha-methyl-2-fluoro-L-phenylalanine; SITE 10: note = 3-(4-Pyridyl)-L-alanine; SITE 11: note = alpha-methyl-L-serine; SITE 16: note = L-ornithine; SITE 17: note = Lysine is chemically modified through conjugation of the epsi) [Example 605]
Marked response: 2.12

Exam item: Identify log10(Relative cAMP EC50) associated with the binder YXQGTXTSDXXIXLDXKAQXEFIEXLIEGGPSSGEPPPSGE (non-natural residues (Aib, αMeF, 4Pal, Orn, Me4Pal); lipidated Lys; C-amide; synthetic construct; SITE 2: note = 2-Aminoisobutyric Acid; SITE 6: note = alpha-methyl-L-phenylalanine; SITE 10: note = 3-(4-Pyridyl)-L-alanine; SITE 11: note = alpha-methyl-L-serine; SITE 13: note = alpha-methyl-leucine; SITE 16: note = L-ornithine; SITE 17: note = Lysine is chemically modified th) [Example 1165]
Marked response: 1.08

Exam item: Identify log10(Relative cAMP EC50) associated with the binder YXQGTXTSDXXIXLDXKAQXEFIEXLVEGGPSSGEPPPSGE (Aib, αMeF(2F), 4Pal, αMeS, αMeL, Orn, Me4Pal, αMeY; lipidated Lys; amide; synthetic construct; SITE 2: note = 2-Aminoisobutyric Acid; SITE 6: note = alpha-methyl-2-fluoro-L-phenylalanine; SITE 10: note = 3-(4-Pyridyl)-L-alanine; SITE 11: note = alpha-methyl-L-serine; SITE 13: note = alpha-methyl-leucine; SITE 16: note = L-ornithine; SITE 17: note = Lysine is chemically mo) [Example 1161]
Marked response: 0.99

Exam item: Identify log10(Relative cAMP EC50) associated with the binder YXQGTXTSDXXIXLDXKAQXEFIEXLIEGGPSSGAPPPSGE (non-natural residues; acylated Lys C18 diacid; C-term amide; synthetic construct; SITE 2: note = 2-Aminoisobutyric Acid; SITE 6: note = alpha-methyl-L-phenylalanine; SITE 10: note = 3-(4-Pyridyl)-L-alanine; SITE 11: note = alpha-methyl-L-serine; SITE 13: note = alpha-methyl-leucine; SITE 16: note = L-ornithine; SITE 17: note = Lysine is chemically modified th) [Example 1164]
Marked response: 1.02

Exam item: Identify log10(Relative cAMP EC50) associated with the binder YXQGTFTSDXSQXLDKKAQXAFIEYLIAGGPSSGAPPPSGEEE (acylated Lys, C-terminal amide, non-natural residues; synthetic construct; SITE 2: note = 2-Aminoisobutyric Acid; SITE 10: note = 3-(4-Pyridyl)-L-alanine; SITE 13: note = alpha-methyl-leucine; SITE 17: note = Lysine is chemically modified through conjugation of the epsilon-amino group of the Lysine side chain with (Glu)2-(gamma-Glu)-CO-(CH2)16-CO2H; SI) [Example 1090]
Marked response: 2.43

Exam item: Identify log10(Relative cAMP EC50) associated with the binder YXQGTXTSDXSILLDKKAQXAFIEXLEEGGPSSGAPPPSGTGE (synthetic construct; SITE 2: note = 2-Aminoisobutyric Acid; SITE 6: note = alpha-methyl-2-fluoro-L-phenylalanine; SITE 10: note = 3-(4-Pyridyl)-L-alanine; SITE 17: note = Lysine is chemically modified through conjugation of the epsilon-amino group of the Lysine side chain with (2-[2-(2-Amino-ethoxy))) [Example 669 (SEQ ID NO: 675)]
Marked response: 1.16

Exam item: Identify log10(Relative cAMP EC50) associated with the binder YXQGTFTSDYSQXLDKKAQXAFIEYLLEGGESSGAPPPSGS (synthetic construct; SITE 2: note = 2-Aminoisobutyric Acid; SITE 13: note = alpha-methyl-leucine; SITE 17: note = Lysine is chemically modified through conjugation of the epsilon-amino group of the Lysine side chain with (2-[2-(2-Amino-ethoxy)-ethoxy]-acetyl)-(gamma-Glu)-CO-(CH2) 16-CO2H; SITE 20: n) [Example 362]
Marked response: 2.42

Exam item: Identify log10(Relative cAMP EC50) associated with the binder YXQGTFTSDYXIXLDKKAQXAFIEYLIEGGPSSGAPPPS (synthetic construct; SITE 2: note = 2-Aminoisobutyric Acid; SITE 11: note = alpha-methyl-L-serine; SITE 13: note = alpha-methyl-leucine; SITE 17: note = Lysine is chemically modified through conjugation of the epsilon-amino group of the Lysine side chain with (2-[2-(2-Amino-ethoxy)-ethoxy]-acetyl)2-) [Example 382]
Marked response: 1.57

Exam item: Identify log10(Relative cAMP EC50) associated with the binder YXQGTFTSDFSKXLDKKAQXAFIEYLLEGGPSSGAPPPSEGX (synthetic construct; SITE 2: note = 2-Aminoisobutyric Acid; SITE 13: note = alpha-methyl-leucine; SITE 17: note = Lysine is chemically modified through conjugation of the epsilon-amino group of the Lysine side chain with (2-[2-(2-Amino-ethoxy)-ethoxy]-acetyl)-(gamma-Glu)-CO-(CH2) 16-CO2H; SITE 20: n) [Example 56]
Marked response: 2.50

Exam item: Identify log10(Relative cAMP EC50) associated with the binder YXQGTFTSDXSQXLDKKAQXAFIEYLLEAGPSSGAPPPSGS (synthetic construct; SITE 2: note = 2-Aminoisobutyric Acid; SITE 10: note = 3-(4-Pyridyl)-L-alanine; SITE 13: note = alpha-methyl-leucine; SITE 17: note = Lysine is chemically modified through conjugation of the epsilon-amino group of the Lysine side chain with (2-[2-(2-Amino-ethoxy)-ethoxy]-acetyl)) [Example 820]
Marked response: 2.08

Exam item: Identify log10(Relative cAMP EC50) associated with the binder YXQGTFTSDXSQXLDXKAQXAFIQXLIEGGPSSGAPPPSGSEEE (non-natural residues, acylated Lys (γGlu-C18 diacid), C-terminal amide; synthetic construct; SITE 2: note = 2-Aminoisobutyric Acid; SITE 10: note = 3-(4-Pyridyl)-L-alanine; SITE 13: note = alpha-methyl-leucine; SITE 16: note = L-ornithine; SITE 17: note = Lysine is chemically modified through conjugation of the epsilon-amino group of the Lysine side chain with D-Glutami) [Example 1073]
Marked response: 2.30
